TARGET_ENTITY: T1, human sodium-dependent phosphate transporter 2B (NaPi2b) (human, UniProt O95436 1-690)
T1 construct: UniProt ID is given as 095436 [sic]; also called hNaPi2b; Hu NaPi2b
T1 sequence: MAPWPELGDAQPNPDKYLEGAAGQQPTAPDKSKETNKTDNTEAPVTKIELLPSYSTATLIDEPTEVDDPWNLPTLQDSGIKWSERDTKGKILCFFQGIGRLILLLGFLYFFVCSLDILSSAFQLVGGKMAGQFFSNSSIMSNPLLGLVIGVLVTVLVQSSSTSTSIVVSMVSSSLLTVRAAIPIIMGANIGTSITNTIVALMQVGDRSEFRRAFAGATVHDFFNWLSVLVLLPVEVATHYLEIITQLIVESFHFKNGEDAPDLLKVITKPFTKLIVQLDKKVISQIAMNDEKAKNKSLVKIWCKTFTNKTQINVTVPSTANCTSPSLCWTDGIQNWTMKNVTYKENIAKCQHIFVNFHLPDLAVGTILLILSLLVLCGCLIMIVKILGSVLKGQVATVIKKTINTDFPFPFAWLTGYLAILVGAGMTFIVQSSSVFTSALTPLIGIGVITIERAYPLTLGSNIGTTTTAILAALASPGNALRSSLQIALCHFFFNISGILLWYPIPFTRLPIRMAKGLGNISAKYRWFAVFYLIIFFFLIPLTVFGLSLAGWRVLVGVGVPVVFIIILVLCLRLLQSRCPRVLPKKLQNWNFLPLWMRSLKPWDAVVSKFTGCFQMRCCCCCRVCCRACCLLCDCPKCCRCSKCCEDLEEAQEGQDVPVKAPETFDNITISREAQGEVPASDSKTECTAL
METHOD_NOTES: flow cytometry, IGROV-1 cells (endogenous NaPi2b), 24 h at 4 °C
MEASURED_PARAMETER: Bmax (MFI)
Give your result in MFI as a bare value.

Past entries and their recorded results:
[ask] Query: Bmax (MFI); subject: v23855, parental mouse-human chimeric anti-NaPi2b IgG1/kappa antibody (antibody, V domains shown, Full-size antibody: mouse VH/VL appended to human IGHG1*01 CH1-hinge-CH2-CH3 (ends at G446) and IGKC*01; also called parental chimeric) VH: QAYLQQSGAELVRPGASVKMSCKASGFTFTSYNVHWVKQTPRQGLEWIAAISPGNGDLSYNQRFKDKATLTVDRSSSTAYMQLSGLTSEDSAVYFCARGRTGMGAVDYWGQGTSVTVSS VL: DVQMTQTASSLSASLGDRVTISCRASQDVYSYLNWYQQKPHGTVKLLIYYTSRLQSGVPSRFTGSGSGTDYSLTISNLEPEDIATYYCQQYNIFPWTFGGGTKLEIKR
[reply] 43700

[ask] Query: Bmax (MFI); subject: v29460 humanized anti-NaPi2b antibody (H1L1) (antibody, human IgG1, kappa, V domains shown) VH: QVQLVQSGAEVKKPGASVKVSCKASGFTFTSYNVHWVRQAPGQGLEWMGAISPGNGDLSYAQKFQGRVTMTRDTSTSTVYMELSSLRSEDTAVYYCARGRTGMGAVDYWGQGTLVTVSS VL: DIQMTQSPSSLSASVGDRVTITCRASQDVYSYLNWYQQKPGKAPKLLIYYTSRLQSGVPSRFSGSGSGTDFTLTISSLQPEDFATYYCQQYNIFPWTFGQGTKLEIKR
[reply] 40100

# context switch: different binder, same Bmax (MFI)
[ask] Query: Bmax (MFI); subject: v29455 humanized anti-NaPi2b antibody (H2L2) (antibody, human IgG1, kappa, V domains shown) VH: QVQLVQSGAEVKKPGASVKVSCKASGFTFTSYNVHWVRQAPGQGLEWIAAISPGNGDLSYAQKFQGRVTMTVDTSTSTVYMELSSLRSEDTAVYYCARGRTGMGAVDYWGQGTLVTVSS VL: DVQMTQSPSSLSASVGDRVTITCRASQDVYSYLNWYQQKPGKAVKLLIYYTSRLQSGVPSRFSGSGSGTDYTLTISSLQPEDFATYYCQQYNIFPWTFGQGTKLEIKR
[reply] 41900

Origin of values: patent US20250277030A1
